Assign viscosity to each entry below.
Details: 298.15 K; 101.33 kPa; Liquid
One number for each entry, in mPa·s.

Dear reader, for each entry below, please note its viscosity.
1. ClC(Cl)=C(Cl)Cl
2. CC(Cl)(Cl)Cl
3. ClC(Cl)C(Cl)Cl
4. CCCCCCCO
5. ClCCCl
6. ClC=C(Cl)Cl

Reply:
0.839
0.789
1.431
5.818
0.776
0.536

----------
Details: 298.15 K; 101.33 kPa; Liquid
attribute measured: mass density (kg/m3)
Numbers only, in kg/m3.

Dear reader, for each entry below, please note its mass density.
1. ClC(Cl)=C(Cl)Cl
2. ClCCCl
3. CCCCCCCO
4. CC(Cl)(Cl)Cl
5. ClC(Cl)C(Cl)Cl
6. ClC=C(Cl)Cl

Reply:
1613.2
1245.64
818.48
1329.55
1586.65
1455.65

Cited source for all entries: the NIST ThermoML archive (doi:10.1021/je0501890)
